Values were extracted from patent US7569550B2.

- Tested on: E. faecalis ATCC 29212
endpointLabel: MIC

Query :: For the compound CC[C@@H]1OC(=O)[C@H](C)[C@H](O[C@@H]2C[C@](C)(OC)[C@H](OCCCNCCCc3ccc4c(c3)c(=O)c(C(=O)O)cn4CC)[C@H](C)O2)[C@@H](C)[C@H](O[C@H]2O[C@@H](C)C[C@@H](N(C)C)[C@H]2O)[C@](C)(OC)C[C@H](C)C(=O)[C@H](C)[C@H](O)[C@@]1(C)O [Example 5] , give its measured MIC value.
Result :: ≤ 1 µg/mL

Query :: For the compound CC[C@H]1OC(=O)[C@H](C)[C@@H](O[C@H]2C[C@@](C)(OC)[C@@H](OCCCN(C)CCCc3cc4c5c(c3)c(=O)c(C(=O)O)cn5CCC4)[C@H](C)O2)[C@H](C)[C@@H](O[C@@H]2O[C@H](C)C[C@H](N(C)C)[C@H]2O)[C@](C)(OC)C[C@@H](C)C(=O)[C@@H](C)[C@H]2NC(=O)O[C@@]21C [Example 31] , give its measured MIC value.
Result :: ≤ 1 µg/mL

Query :: For the compound CC[C@H]1OC(=O)[C@H](C)[C@@H](O[C@H]2C[C@@](C)(OC)[C@@H](OCCCNCCCc3cc4c5c(c3)c(=O)c(C(=O)O)cn5CCC4)[C@H](C)O2)[C@H](C)[C@@H](O[C@@H]2O[C@H](C)C[C@H](N(C)C)[C@H]2O)[C@](C)(OC)C[C@@H](C)C(=O)[C@@H](C)[C@H]2NC(=O)O[C@@]21C [Example 25] , give its measured MIC value.
Result :: ≤ 1 µg/mL

Query :: For the compound CC[C@H]1OC(=O)[C@H](C)[C@@H](O[C@H]2C[C@@](C)(OC)[C@@H](OCCCN(C)CCNc3nc4c(cc3F)c(=O)c(C(=O)O)cn4CC)[C@H](C)O2)[C@H](C)[C@@H](O[C@@H]2O[C@H](C)C[C@H](N(C)C)[C@H]2O)[C@](C)(OC)C[C@@H](C)C(=O)[C@@H](C)[C@H]2NC(=O)O[C@@]21C [Example 27] , give its measured MIC value.
Result :: ≤ 1 µg/mL

Query :: For the compound CC[C@H]1OC(=O)[C@H](C)[C@@H](O[C@H]2C[C@@](C)(OC)[C@@H](OCCCNCCOc3cc4c5c(c3)c(=O)c(C(=O)O)cn5CCC4)[C@H](C)O2)[C@H](C)[C@@H](O[C@@H]2O[C@H](C)CC(N(C)C)[C@H]2O)[C@](C)(OC)C[C@@H](C)C(=O)[C@@H](C)[C@H]2NC(=O)O[C@@]21C (stereo partly drawn) [Example 22] , give its measured MIC value.
Result :: ≤ 1 µg/mL

Query :: For the compound CC[C@@H]1OC(=O)[C@H](C)[C@H](O[C@@H]2C[C@](C)(OC)[C@H](OCCCN(C)CCCc3ccc4c(c3)c(=O)c(C(=O)O)cn4CC)[C@H](C)O2)[C@@H](C)[C@H](O[C@H]2O[C@@H](C)C[C@@H](N(C)C)[C@H]2O)[C@](C)(OC)C[C@H](C)C(=O)[C@H](C)[C@H]2NC(=O)O[C@@]12C [Example 29] , give its measured MIC value.
Result :: ≤ 1 µg/mL

Query :: For the compound CC[C@@H]1OC(=O)[C@H](C)[C@H](O[C@@H]2C[C@](C)(OC)[C@H](OCCNCCNc3nc4c(cc3F)c(=O)c(C(=O)O)cn4CC)[C@H](C)O2)[C@@H](C)[C@H](O[C@H]2O[C@@H](C)C[C@@H](N(C)C)[C@H]2O)[C@](C)(OC)C[C@H](C)C(=O)[C@H](C)[C@H](O)[C@@]1(C)O [Example 18] , give its measured MIC value.
Result :: ≤ 1 µg/mL

Query :: For the compound CC[C@@H]1OC(=O)[C@H](C)[C@H](O[C@H]2C[C@](C)(OC)[C@@H](OCCN(C)CCNc3cc4c(cc3F)c(=O)c(C(=O)O)cn4C3CC3)[C@@H](C)O2)[C@@H](C)[C@H](O[C@H]2O[C@@H](C)C[C@@H](N(C)C)[C@H]2O)[C@](C)(OC)C[C@H](C)C(=O)[C@H](C)[C@H]2OC(=O)O[C@@]12C [Example 1] , give its measured MIC value.
Result :: ≤ 1 µg/mL

Query :: For the compound CC[C@H]1OC(=O)[C@H](C)[C@@H](O[C@H]2C[C@@](C)(OC)[C@@H](OCCCN(C)CCCc3cnc4c(c3)c(=O)c(C(=O)O)cn4CC)[C@H](C)O2)[C@H](C)[C@@H](O[C@@H]2O[C@H](C)C[C@H](N(C)C)[C@H]2O)[C@](C)(OC)C[C@@H](C)C(=O)[C@@H](C)[C@H]2NC(=O)O[C@@]21C [Example 30] , give its measured MIC value.
Result :: ≤ 1 µg/mL

Query :: For the compound CC[C@H]1OC(=O)[C@H](C)[C@@H](O[C@H]2C[C@@](C)(OC)[C@@H](OCCCN(C)CCSc3ccc4c(c3)c(=O)c(C(=O)O)cn4CC)[C@H](C)O2)[C@H](C)[C@@H](O[C@@H]2O[C@H](C)C[C@H](N(C)C)[C@H]2O)[C@](C)(OC)C[C@@H](C)C(=O)[C@@H](C)[C@H]2NC(=O)O[C@@]21C [Example 32] , give its measured MIC value.
Result :: ≤ 1 µg/mL

Query :: For the compound CC[C@@H]1OC(=O)[C@H](C)[C@H](O[C@@H]2C[C@](C)(OC)[C@H](OCCCNCCCc3ccc4c(c3)c(=O)c(C(=O)O)cn4CC)[C@H](C)O2)[C@@H](C)[C@H](O[C@H]2O[C@@H](C)C[C@@H](N(C)C)[C@H]2O)[C@](C)(OC)C[C@H](C)C(=O)[C@H](C)[C@H]2N(C)C(=O)O[C@@]12C [Example 7] , give its measured MIC value.
Result :: ≤ 1 µg/mL

Query :: For the compound CC[C@H]1OC(=O)[C@H](C)[C@@H](O[C@H]2C[C@@](C)(OC)[C@@H](OCCCNCCCc3ccc4c(c3C)c(=O)c(C(=O)O)cn4CC)[C@H](C)O2)[C@H](C)[C@@H](O[C@@H]2O[C@H](C)CC(N(C)C)[C@H]2O)[C@](C)(OC)C[C@@H](C)C(=O)[C@@H](C)[C@H]2NC(=O)O[C@@]21C (stereo partly drawn) [Example 23] , give its measured MIC value.
Result :: ≤ 1 µg/mL

====

The reader will find MIC measurements below, all made with M. catarrhalis ATCC 23246.

Query :: For the compound CC[C@@H]1OC(=O)[C@H](C)[C@H](O[C@@H]2C[C@](C)(OC)[C@H](OCCCN(C)CCNc3nc4c(cc3F)c(=O)c(C(=O)O)cn4CC)[C@H](C)O2)[C@@H](C)[C@H](O[C@H]2O[C@@H](C)C[C@@H](N(C)C)[C@H]2O)[C@](C)(OC)C[C@H](C)C(=O)[C@H](C)[C@H]2OC(=O)O[C@@]12C , give its measured MIC value.
Result :: ≤ 4 µg/mL

Query :: For the compound CC[C@H]1OC(=O)[C@H](C)[C@@H](O[C@H]2C[C@@](C)(OC)[C@@H](OCCCNCCNc3nc4c(cc3F)c(=O)c(C(=O)O)cn4CC)[C@H](C)O2)[C@H](C)[C@@H](O[C@@H]2O[C@H](C)CC(N(C)C)[C@H]2O)[C@](C)(OC)C[C@@H](C)C(=O)[C@@H](C)[C@H]2NC(=O)O[C@@]21C (stereo partly drawn) , give its measured MIC value.
Result :: ≤ 4 µg/mL

Query :: For the compound CC[C@H]1OC(=O)[C@H](C)[C@@H](O[C@H]2C[C@@](C)(OC)[C@@H](OCCCN(C)CCCc3cnc4c(c3)c(=O)c(C(=O)O)cn4CC)[C@H](C)O2)[C@H](C)[C@@H](O[C@@H]2O[C@H](C)C[C@H](N(C)C)[C@H]2O)[C@](C)(OC)C[C@@H](C)C(=O)[C@@H](C)[C@H]2NC(=O)O[C@@]21C , give its measured MIC value.
Result :: ≤ 4 µg/mL

Query :: For the compound CC[C@@H]1OC(=O)[C@H](C)[C@H](O[C@@H]2C[C@](C)(OC)[C@H](OCCCNCCOc3cc4c5c(c3)c(=O)c(C(=O)O)cn5CCC4)[C@H](C)O2)[C@@H](C)[C@H](O[C@H]2O[C@@H](C)C[C@@H](N(C)C)[C@H]2O)[C@](C)(OC)C[C@H](C)C(=O)[C@H](C)[C@H]2OC(=O)O[C@@]12C , give its measured MIC value.
Result :: ≤ 4 µg/mL

Query :: For the compound CC[C@@H]1OC(=O)[C@H](C)[C@H](O[C@@H]2C[C@](C)(OC)[C@H](OCCCN(C)CCCc3ccc4c(c3)c(=O)c(C(=O)O)cn4CC)[C@H](C)O2)[C@@H](C)[C@H](O[C@H]2O[C@@H](C)C[C@@H](N(C)C)[C@H]2O)[C@](C)(OC)C[C@H](C)C(=O)[C@H](C)[C@H]2NC(=O)O[C@@]12C , give its measured MIC value.
Result :: ≤ 4 µg/mL

Query :: For the compound CC[C@@H]1OC(=O)[C@H](C)[C@H](O[C@@H]2C[C@](C)(OC)[C@H](OCCCN(C)CCNc3cc4c(cc3F)c(=O)c(C(=O)O)cn4C3CC3)[C@H](C)O2)[C@@H](C)[C@H](O[C@H]2O[C@@H](C)C[C@@H](N(C)C)[C@H]2O)[C@](C)(OC)C[C@H](C)C(=O)[C@H](C)[C@H]2OC(=O)O[C@@]12C , give its measured MIC value.
Result :: ≤ 4 µg/mL
